Each entry below lists one item and its recorded inhibition at 1 µM value.
- TEST SYSTEM: mTOR (Homo sapiens, UniProt P42345)
- Construct: human mTOR amino acids from 1360 to 2549; purchased Invitrogen 4753; host or cells: insect cells
- Sequence (P42345 1360-2549): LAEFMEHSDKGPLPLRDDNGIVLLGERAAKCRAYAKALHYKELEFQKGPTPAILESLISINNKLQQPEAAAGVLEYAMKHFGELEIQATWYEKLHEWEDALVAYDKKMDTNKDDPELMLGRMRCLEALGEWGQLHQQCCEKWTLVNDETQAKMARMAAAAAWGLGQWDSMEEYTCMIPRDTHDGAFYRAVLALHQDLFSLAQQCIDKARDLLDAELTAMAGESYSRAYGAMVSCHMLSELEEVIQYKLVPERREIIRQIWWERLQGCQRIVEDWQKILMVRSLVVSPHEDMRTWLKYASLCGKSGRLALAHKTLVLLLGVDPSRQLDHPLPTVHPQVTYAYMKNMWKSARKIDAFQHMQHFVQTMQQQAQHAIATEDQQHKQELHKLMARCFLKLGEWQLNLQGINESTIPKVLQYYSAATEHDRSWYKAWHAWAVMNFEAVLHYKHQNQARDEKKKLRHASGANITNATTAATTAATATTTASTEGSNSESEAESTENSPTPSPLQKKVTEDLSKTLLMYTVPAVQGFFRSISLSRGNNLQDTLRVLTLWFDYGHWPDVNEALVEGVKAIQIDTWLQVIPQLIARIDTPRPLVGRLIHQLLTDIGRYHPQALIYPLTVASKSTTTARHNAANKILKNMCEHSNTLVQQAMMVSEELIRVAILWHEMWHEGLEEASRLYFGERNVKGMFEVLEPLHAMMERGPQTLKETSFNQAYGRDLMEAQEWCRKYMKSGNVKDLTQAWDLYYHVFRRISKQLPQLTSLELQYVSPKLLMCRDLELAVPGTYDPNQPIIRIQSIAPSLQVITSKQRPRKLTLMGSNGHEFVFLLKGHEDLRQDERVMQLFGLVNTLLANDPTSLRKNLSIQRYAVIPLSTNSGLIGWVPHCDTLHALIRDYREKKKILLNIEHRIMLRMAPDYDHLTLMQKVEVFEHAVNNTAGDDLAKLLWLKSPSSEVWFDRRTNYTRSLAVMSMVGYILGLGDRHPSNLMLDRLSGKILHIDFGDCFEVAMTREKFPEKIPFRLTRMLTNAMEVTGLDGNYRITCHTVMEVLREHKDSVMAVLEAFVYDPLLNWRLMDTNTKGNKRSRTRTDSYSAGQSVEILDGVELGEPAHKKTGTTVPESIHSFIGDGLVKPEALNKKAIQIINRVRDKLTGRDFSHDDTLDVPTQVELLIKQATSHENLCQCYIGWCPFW
- ASSAY NAME: mTOR kinase assay (TR-FRET, for comparative purposes)
- Format: biochemical
- MEASUREMENT PARAMETERS: read-out: mTOR % inhibition @ 1 μM, mean inhibition at 1 μM test compound, 40 μM ATP
Structures can show the parent of a compound that is named as a salt.

# COMPOUND, inhibition at 1 µM / %
measured = [
    ("CCOCc1c(-c2cc3cc(C)cc(OC)c3s2)c2c(N)ncnn2c1C(=O)NCCO", 8.5),
    ("COc1cc(C)cc2cc(-c3c(COCCO)c(CN4CCNC(=O)C4)n4ncnc(N)c34)sc12", 5),
    ("COC(=O)COCc1c(-c2cc3cc(C)cc(OC)c3s2)c2c(N)ncnn2c1CN1CCNCC1", 16.3),
    ("CCOCc1c(-c2cc3cc(C)cc(OC)c3s2)c2c(N)ncnn2c1Cl", 6.3),
    ("CCOCc1c(-c2cc3cc(C)cc(OC)c3s2)c2c(N)ncnn2c1CN1CCNC(=O)C1 [Example 6, dihydrochloride]", 0.3),
    ("COc1cc(C)cc2cc(-c3c(CO)c(CN4CCNC(=O)C4)n4ncnc(N)c34)sc12", 14.9),
    ("CNCc1c(-c2cc3cc(C)cc(OC)c3s2)c2c(N)ncnn2c1CN1CCNCC1 [Example 36, trihydrochloride]", 14.4),
    ("COc1cc(C)cc2cc(-c3c(Cl)c(CN4CCNCC4)n4ncnc(N)c34)sc12 [Example 85, trihydrochloride]", 0.9),
    ("COc1cc(C)cc2cc(-c3c(COCC4CC4)c(CN4CCNCC4)n4ncnc(N)c34)sc12", 3.5),
    ("CCOCc1c(-c2cc3cc(C)cc(OC)c3s2)c2c(N)ncnn2c1CN1CCN(C(C)=O)CC1 [Example 20]", 31.3),
    ("COc1cc(C)cc2cc(-c3c(CNCC(C)O)c(CN4CCOCC4)n4ncnc(N)c34)sc12 (racemic)", 3.3),
    ("COc1cc(C)cc2cc(-c3c(CNCC4CC4)c(CN4CCNCC4)n4ncnc(N)c34)sc12 [Example 47, trihydrochloride]", 14.7),
    ("CCOCc1c(-c2cc3cc(C)cc(OC)c3s2)c2c(N)ncnn2c1CN[C@@H]1CCNC1=O [Example 7, dihydrochloride]", 3.1),
    ("COc1cc(C)cc2cc(-c3c(CO)c(C(C)(C)O)n4ncnc(N)c34)sc12", 18.5),
    ("COc1cc(C)cc2cc(-c3c(CN4CCNC(=O)C4)c(CN4CCN(C(C)=O)CC4)n4ncnc(N)c34)sc12", 0.8),
    ("COc1cc(C)cc2cc(-c3c(CN4CCNC(=O)C4)c(CN4CCOCC4)n4ncnc(N)c34)sc12", 4.2),
    ("COc1cc(C)cc2cc(-c3c(COCC(F)(F)F)c(CN4CCNCC4)n4ncnc(N)c34)sc12", 28.5),
    ("COc1cc(C)cc2cc(-c3c(CNC(C)=O)c(CN4CCNCC4)n4ncnc(N)c34)sc12 [Example 64, dihydrochloride]", 1.1),
    ("COCc1c(-c2cc3cc(C)cc(OC)c3s2)c2c(N)ncnn2c1CN1CCNCC1", 6.7),
    ("COc1cc(C)cc2cc(-c3c(CN(C)C)c(CN4CCNCC4)n4ncnc(N)c34)sc12 [Example 37, trihydrochloride]", 8.6),
    ("COc1cc(C)cc2cc(-c3c(COCCO)c(CN4CCNCC4)n4ncnc(N)c34)sc12 [Example 22, dihydrochloride]", 17.6),
    ("CCCCOCc1c(-c2cc3cc(C)cc(OC)c3s2)c2c(N)ncnn2c1CN1CCNCC1", 11.6),
    ("COc1cc(C)cc2cc(-c3c(-c4cnco4)c(CN4CCNCC4)n4ncnc(N)c34)sc12 [Example 61, trihydrochloride]", 15.9),
    ("COCc1c(-c2cc3cccc(OC)c3s2)c2c(N)ncnn2c1CN1CCNC(=O)C1", 5.3),
    ("COc1cc(C)cc2cc(-c3c(COC4CCC4)c(CN4CCNCC4)n4ncnc(N)c34)sc12", 6.8),
    ("COc1cc(C)cc2cc(-c3c(CO)c(C#N)n4ncnc(N)c34)sc12", 8),
    ("COc1cc(C)cc2cc(-c3c(CNCCO)c(CN4CCNCC4)n4ncnc(N)c34)sc12 [Example 39, trihydrochloride]", 11.5),
    ("CCOCc1c(-c2cc3cc(C)cc(OC)c3s2)c2c(N)ncnn2c1C#N", 5.8),
    ("COc1cc(C)cc2cc(-c3c(COC(C)C)c(CN4CCNCC4)n4ncnc(N)c34)sc12", 5.9),
    ("COc1cc(C)cc2cc(-c3c(C)c(CN4CCNCC4)n4ncnc(N)c34)sc12", 9.1),
    ("COC(=O)c1c(-c2cc3cc(C)cc(OC)c3s2)c2c(N)ncnn2c1C(=O)N1CCNCC1", 11.1),
]

src = patent US20220153745A1
